All values here come from PubChem BioAssay.

Molecular target: Voltage-gated potassium channel subunit beta-2 (Rattus norvegicus) (UniProt P62483)
Sequence (P62483 whole entry, looked up): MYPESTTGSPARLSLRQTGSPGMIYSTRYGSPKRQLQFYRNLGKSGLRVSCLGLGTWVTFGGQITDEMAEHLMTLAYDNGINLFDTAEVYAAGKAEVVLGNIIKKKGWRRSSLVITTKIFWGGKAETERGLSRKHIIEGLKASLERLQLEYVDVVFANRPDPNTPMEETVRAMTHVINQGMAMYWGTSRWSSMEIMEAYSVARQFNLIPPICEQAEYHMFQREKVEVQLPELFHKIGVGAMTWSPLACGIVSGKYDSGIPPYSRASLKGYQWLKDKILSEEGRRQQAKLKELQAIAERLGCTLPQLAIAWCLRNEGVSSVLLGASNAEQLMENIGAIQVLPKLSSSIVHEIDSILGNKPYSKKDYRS
Test: inhibitors of rat Kvbeta2 reductase activity – biochemical, NADPH fluorescence, primary screen (AID 622);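 note: slope of raw intensity against log time taken from 70 to 1610 s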
Details: recombinant KvBeta, 4-cyanobenzaldehyde reduction, at 10 µM, stronger effect = higher value
Assign 1 (yes) whenever fluorescence slope does not fall below -0.5; assign 0 (no) whenever it does.

Examples with answers:
[[record]]
compound = "COc1cc(C(=O)N2CCN(C(=O)CC(C)C)CC2)cc(OC)c1OC"
class_name = "1 (yes)"

[[record]]
compound = "COc1ccc(C2C(C(C)=O)=C(C)N=c3s/c(=C/c4ccc5c(c4)OCO5)c(=O)n32)cc1 (configuration not stated)"
class_name = "0 (no)"

[[record]]
compound = "CCCN1CCN(C(=O)c2cn(CC(C)C)c(=O)c3cc(OC)c(OC)cc23)CC1"
class_name = "1 (yes)"

[[record]]
compound = "O=C(COC(=O)c1cnccn1)Nc1ccc2c(c1)OCO2"
class_name = "1 (yes)"

[[record]]
compound = "CCOC(=O)N1CCN(C(=O)C2c3cc(OC)c(OC)cc3C(=O)N3CCc4ccccc4C23)CC1 (configuration not stated)"
class_name = "1 (yes)"

[[record]]
compound = "COc1ccc(N(CC(=O)Nc2ccc3c(c2)OCCO3)S(=O)(=O)c2cccnc2)cc1"
class_name = "0 (no)"

[[record]]
compound = "O=C(CSc1ncccn1)c1ccccc1Br"
class_name = "0 (no)"

[[record]]
compound = "CC1CCN(C(=O)c2cc(-c3ccc(Cl)c(Cl)c3)on2)CC1"
class_name = "1 (yes)"

[[record]]
compound = "O=C(Nc1ccc(S(=O)(=O)N2CCCCCC2)cc1)c1ccco1"
class_name = "1 (yes)"

[[record]]
compound = "CC(C(=O)NC(=O)NC1CCCCC1)N1CCN(c2ccccn2)CC1 (configuration not stated)"
class_name = "1 (yes)"


## Input fluorescence slope >= -0.5 for CC1=C(C(=O)OC(C)C)C(C2CC=CCC2)NC(=O)N1 (configuration not stated) ?
## Output 1 (yes)

## Input Can COc1cccc(NC(=O)N2CCCC2C(=O)Nc2ccc3c(c2)OCO3)c1 (configuration not stated) be said to have fluorescence slope at or above -0.5?
## Output 1 (yes)

## Input Has CCOc1ccccc1N(CC(=O)N1CCCCCC1)S(C)(=O)=O a recorded fluorescence slope greater than or equal to -0.5?
## Output 1 (yes)

----------
Test: blockers of RIG-like receptor reporter activation – cell-based, Sendai virus stimulus, luciferase, 10K MLSCN set, TLR/RLR signaling modifier project, primary screen (AID 602276);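 note: firefly luciferase from ISG56 promoter only with Renilla not read in this screen; 0% = Sendai virus plus DMSO and 100% = medium plus DMSO without virus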
Settings: HEK293 RL24 IRF3 luciferase reporter, at 10 µM, stronger effect = higher value
Please note: label 1 applies when inhibition is 10% or greater, and label 0 applies otherwise.

Observe how each entry below is paired with its result.
[[record]]
molecule_smiles = "Cc1ccc(-n2c(Cc3cccn3C)nnc2SCC(=O)NCc2ccc3c(c2)OCO3)cc1"
class_name = "label 1"

[[record]]
molecule_smiles = "COCc1nnc(NS(=O)(=O)c2ccc(Br)cc2)s1"
class_name = "label 1"


## Input // inclusive: inhibition at least 10%? input: COC(=O)c1ccccc1NC(=O)Cn1c(-c2nonc2N)nc2ccccc21
## Output label 1

## Input Identify whether the reported inhibition of the following compound is 10% or greater: COc1ccc(OC)c(C(=O)c2ccc(C(=O)O)cc2)c1
## Output label 1

## Input # check: inhibition of COc1cccc(C(=O)Nc2ccc(NC(=O)C(C)(C)C)cn2)c1 is greater than or equal to 10%
## Output label 1

## Input Evaluate CCCCCOC(=O)CSc1nnc(-c2cc(OC)c(OC)c(OC)c2)o1 : inhibition at minimum 10%?
## Output label 0

## Input Has CC1(C)CC(=O)c2cnc(NCc3ccco3)nc2C1 a recorded inhibition greater than or equal to 10%?
## Output label 0

----------
Experiment: endothelial E-selectin expression blockers – imaging, HUVEC, immunofluorescence, MLSMR starter and 10KST1 sets, primary screen (AID 487);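 note: signal is fraction of cell area covered by stained E-selectin grains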
Settings: HUVEC TNFalpha-induced E-selectin immunofluorescence imaging, at 2 µM; stronger effect = higher value
# Lookup of reported inhibition keyed by entry
Please state the figure in %; there is no need to write the unit.

Before answering, review these 2 worked examples.
[[record]]
compound = "Cc1ccc2c(c1)CCCN2C(=O)c1ccc2c(c1)OCO2"
numeric_value = -117

[[record]]
compound = "CCC(C(=O)NC(C)CCc1ccco1)n1nc(C)n2c(cc3occc32)c1=O (stereo not drawn)"
numeric_value = -121


## Input Find the recorded inhibition belonging to COc1ccc(OC)c(C(=O)c2ccc(C(=O)O)cc2)c1 and report it.
## Output -71.4

## Input Recorded inhibition for COc1cccc(OCCSc2nnc3sc4ccccc4n23)c1 , please?
## Output -24.1

## Input Entry Cc1cc(-c2ccccc2)nc(SCc2ccc(C(=O)O)o2)n1 has what inhibition?
## Output -106

## Input Item C#CCSc1nnc(-c2ccccc2)c(=O)[nH]1 has what recorded inhibition?
## Output -57.3

## Input Fill blank: measured inhibition of the compound COc1ccc(Cl)cc1NC(=O)CSc1nncn1-c1cccnc1 is ____.
## Output 60.5

## Input Suppose we examine the compound CCOC(=O)CNc1ccc2c(c1)OCO2 ; what inhibition value has been reported?
## Output -105

## Input So what does the record say about inhibition for CC(C(=O)Oc1ccc2c(c1)OCO2)N1C(=O)c2ccccc2C1=O (stereo not drawn) ?
## Output -33.5

## Input Sample Cc1cccc(NCc2ccccc2O)c1 — what was its inhibition?
## Output 10.3

## Input Look at this compound and give its reported inhibition. O=C(NCCCNC1CCCCC1)c1ccc(/C=N/O)nc1
## Output -97.6

## Input Field request: inhibition | item: O=C(CS(=O)(=O)Cc1ccccc1)N1CCc2ccccc2C1
## Output -110

## Input Consider the compound shown here: O=C(Nc1ccc(S(=O)(=O)N2CCCCCC2)cc1)c1ccco1 What is its recorded inhibition?
## Output -32.3

----------
Experiment: reduction of polyQ htt aggregates in cells – imaging, exon1htt(103Q)mCFP cells, high-content imaging, primary screen (AID 483);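 note: compound exposure lasted 3 days before fixation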
Conditions: exon1htt(103Q)mCFP cell line, aggregate imaging, at 2 µM; stronger effect = higher value
A collection of molecules and their measured inhibition of aggregation
Give a bare numeral; the unit % is implied.

Please review the entries below; each comes with its answer.
[[record]]
molecule = "Cc1nnc(SCC(=O)NCc2ccc3c(c2)OCO3)s1"
value_units = "%"
numeric_value = -12

[[record]]
molecule = "CC(C)NC(=O)c1ccccc1NC(=O)CCS(=O)(=O)Cc1ccccc1"
value_units = "%"
numeric_value = -10

[[record]]
molecule = "O=C(Nc1cccnc1)c1cc2c(ccc3ccccc32)o1"
value_units = "%"
numeric_value = -7.4

[[record]]
molecule = "COC(=O)c1ccc(Oc2nc(NC(C)C)nc(N(C)C)n2)cc1"
value_units = "%"
numeric_value = -21.7

[[record]]
molecule = "Cc1csc(NC(=O)CCS(=O)(=O)c2ccc(Br)cc2)n1"
value_units = "%"
numeric_value = -30.9

[[record]]
molecule = "COc1ccc(OC)c(NC(=O)CSc2nnc(-c3ccco3)n2-c2ccccc2)c1"
value_units = "%"
numeric_value = 9.3

[[record]]
molecule = "C=CCc1ccccc1OCC(O)CN1CCN(Cc2ccc3c(c2)OCO3)CC1 (stereo unspecified)"
value_units = "%"
numeric_value = -3.4

[[record]]
molecule = "CC(=O)CCc1ccc(OCCCCn2cncn2)cc1"
value_units = "%"
numeric_value = 15.6

[[record]]
molecule = "Cc1cc(C(=O)Nc2nnc(C(F)(F)F)s2)no1"
value_units = "%"
numeric_value = -8

[[record]]
molecule = "CC(=O)c1ccc(NC(=O)c2cc(CC(C)C)on2)cc1"
value_units = "%"
numeric_value = 23.3


# context switch: different molecule, same inhibition of aggregation
## Input Fill in: inhibition of aggregation of COc1ccccc1Nc1nc(N)nc(CSc2nccc(C)n2)n1 is ___
## Output -9.5

----------
Experiment: reduction of polyQ htt aggregates in cells – imaging, exon1htt(103Q)mCFP cells, high-content imaging, primary screen (AID 483);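 note: compound exposure lasted 3 days before fixation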;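 for nuclei count: percent of the per-plate median nuclei count of sample wells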
Conditions: exon1htt(103Q)mCFP cell line, aggregate imaging, at 2 µM; measured here: cell count, toxicity
READOUT_TYPE: nuclei count (%)
Provide the reading as a plain figure in %.

## Input Query (molecule): Cc1cccc(NC(=O)CC2CCC2)c1 ; field requested: nuclei count
## Output 97.1

## Input What value of measured nuclei count is listed for COc1ccccc1C1C(C(C)=O)=C(O)C(=O)N1CCc1ccccc1 (stereo unspecified) ?
## Output 105

## Input GET /values?readout=nuclei count&item= Cc1ccc(S(=O)(=O)N2CCN(C(=O)CSC3CCCC3)CC2)c(C)c1
## Output 93.6

## Input # input molecule: O=C1CC(c2ccccc2)CC(O)=C1C=NCCCN1CCOCC1 (stereo unspecified) ; wanted: its nuclei count
## Output 88.8

## Input Requested field: nuclei count. Item: O=C(Nc1ccccc1)N(CCN1CCOCC1)Cc1ccccc1F
## Output 101

## Input Recorded nuclei count for CCc1nnc(NC(=O)CCC(=O)Nc2ccccc2)s1 , please?
## Output 97.2
